Below, each entry is listed with its recorded cytotoxicity at 70.5 h.
# procedure.text: Human HepG2 cell viability assay in 384 well format
# Assay type: toxicity, cell-based
# Parameters: dose 125 nL, time 70.5 hour; concentration not given beside the values
# condition.notes: HepG2 cells, read-out: Inhibition
measurement.label: cytotoxicity at 70.5 h (%)

INSERT INTO results (molecule, unit_abbrev, measured_result) VALUES
  ('CSCC(=O)N1C[C@H](c2ccc(C)o2)[C@@H](N)C1', '%', -3.37),
  ('O=C(NCCCNc1ccccn1)NCC1CCS(=O)(=O)C1 (stereo unspecified)', '%', -8.26),
  ('c1ccc2c(c1)CC(CNCc1ccncc1)(N1CCCCC1)C2', '%', -4.17),
  ('CCn1ccnc1CN1CCCN(C(=O)c2scnc2C)CC1', '%', -11.5),
  ('CCc1nc(C2CCCN2c2ncc(Br)cn2)no1 (stereo unspecified)', '%', -6.32),
  ('Cc1nc(CO[C@@H]2CN(Cc3ccccn3)[C@@H]3COC[C@@H]32)cs1', '%', -7.36),
  ('CCS(=O)(=O)CC(=O)NC(C)c1ccc(F)cc1F (stereo unspecified)', '%', -6.32),
  ('Cc1ncc(COc2cccc3c2NC(=O)CO3)s1', '%', 14.5),
  ('COc1ccc(-c2cc(C3CCCCCN3S(=O)(=O)N(C)C)on2)cc1 (stereo unspecified)', '%', 8.12),
  ('CN(C)C(=O)COCc1nnc2n1CCN(Cc1ccoc1)C2', '%', -3.1),
  ('CN(C)C(=O)N1C[C@@H]2CC[C@H](C1)N(C(=O)c1c(Cl)cccc1Cl)C2', '%', -13.7);

---

# procedure.text: Human HepG2 cell viability assay in 384 well format
# Format: toxicity, cell-based
# Design: dose 125 nL, time 70.5 hour; concentration not given beside the values
# condition.notes: HepG2 cells, read-out: Inhibition
Below, each entry is listed with its recorded cytotoxicity at 70.5 h.
measurement.label: cytotoxicity at 70.5 h (%)

INSERT INTO assay_data (molecule, measurement_label, measured_result) VALUES
  ('CCCN1CC2(CCN(C)CC2)CC1C(=O)NCCn1cc(C)cn1 (stereo unspecified)', 'cytotoxicity at 70.5 h', -4.52),
  ('Cc1ccc(-c2ccnc(N(C)CC3CCCO3)n2)c(C)n1 (stereo unspecified)', 'cytotoxicity at 70.5 h', -6.23),
  ('Cn1cc(CCCNC(=O)NC2CCN(c3ccccc3)C2=O)cn1 (stereo unspecified)', 'cytotoxicity at 70.5 h', -5.19),
  ('c1ccc(O[C@H]2CC[C@H]3[C@H]2OCCN3Cc2nccs2)nc1', 'cytotoxicity at 70.5 h', -9.23),
  ('CCN1CCN(C(=O)c2ccc(=O)n(C)c2)c2ccccc21', 'cytotoxicity at 70.5 h', -3.86),
  ('O=C(c1cccc(F)c1)N1CCOC(c2nc(-c3ncccn3)no2)C1 (stereo unspecified)', 'cytotoxicity at 70.5 h', -5.4),
  ('Cc1nn(CCC(=O)NC2CCCOC2)c(C)c1C (stereo unspecified)', 'cytotoxicity at 70.5 h', -1.37),
  ('O=C(Cc1csc(Cc2ccccn2)n1)NCCCN1CCCC1=O', 'cytotoxicity at 70.5 h', 32.1),
  ('Cc1cnc(C(=O)N(C)[C@@H]2CCC[C@@H](Oc3ccccc3)[C@@H]2O)cn1', 'cytotoxicity at 70.5 h', 16.9),
  ('Cc1[nH]ccc1C(=O)N1CCCN1C(=O)OC(C)(C)C', 'cytotoxicity at 70.5 h', 0.542),
  ('O=C(NCCc1cccc(F)c1)NCC(O)c1cccc(F)c1 (stereo unspecified)', 'cytotoxicity at 70.5 h', -5.32);

---

# procedure.text: Human HepG2 cell viability assay in 384 well format
# Assay type: toxicity, cell-based
# Set-up: dose 125 nL, time 70.5 hour; concentration not given beside the values
# condition.notes: HepG2 cells, read-out: Inhibition
measurement.label: cytotoxicity at 70.5 h (%)

INSERT INTO measurements (molecule, measurement_label, measured_result) VALUES
  ('Cn1cc(Br)c(C(=O)NCCCn2cc(Br)cn2)n1', 'cytotoxicity at 70.5 h', 6.5),
  ('Cc1noc(CN(C)c2nc(-c3ccco3)nc3c2CCN(C)CC3)n1', 'cytotoxicity at 70.5 h', -12.8),
  ('CS(=O)(=O)N1CC[C@H]2OCC[C@@]2(C(=O)NCc2ccccn2)C1', 'cytotoxicity at 70.5 h', -2.32),
  ('c1csc(-c2nc(CN3CCOC(Cn4cncn4)C3)co2)c1 (centres undefined)', 'cytotoxicity at 70.5 h', -0.51),
  ('Cc1ccc(C(=O)N(C)Cc2csc(C)n2)c(=O)[nH]1', 'cytotoxicity at 70.5 h', 1.68),
  ('COc1ccc2c(c1)CCCC2CC(=O)O (centres undefined)', 'cytotoxicity at 70.5 h', -19.3),
  ('CCN1CC2(CCCCN2C(=O)c2ccn(C)n2)CC1=O (centres undefined)', 'cytotoxicity at 70.5 h', 0.273),
  ('O=C(NC1CCS(=O)(=O)c2ccccc21)c1sccc1C1CC1 (centres undefined)', 'cytotoxicity at 70.5 h', -7.25),
  ('O=C(Nc1cccc(Cn2cccn2)c1)N1CCCC(N2CCCC2)C1 (centres undefined)', 'cytotoxicity at 70.5 h', -4.22),
  ('COc1ccc(CNCC2CC2)cc1F', 'cytotoxicity at 70.5 h', -7.42),
  ('CS(=O)(=O)NC[C@]12COC[C@H]1CN(CCc1ccccc1)C2', 'cytotoxicity at 70.5 h', -8.06),
  ('CN(C(=O)c1cccc(OCC(F)F)n1)c1ccc2c(c1)CCO2', 'cytotoxicity at 70.5 h', 21.4),
  ('N#Cc1c(N2CCOCC2)nsc1-c1cccnc1', 'cytotoxicity at 70.5 h', -4.2),
  ('CSc1nnc(C2CCN(C(=O)N3CCOCC3)CC2)n1C(C)C', 'cytotoxicity at 70.5 h', 7.97),
  ('CN(CCNC(=O)Nc1cnn(C)c1)Cc1ccc(F)cc1', 'cytotoxicity at 70.5 h', -20.9),
  ('CCS(=O)(=O)NCC(=O)N1CC2(CCCC2)c2c(F)cccc21', 'cytotoxicity at 70.5 h', -1.86),
  ('Cc1cccc(-c2ccc3nc(C4CCN(CC5CC5)CC4)nn3c2)c1', 'cytotoxicity at 70.5 h', 0.0128),
  ('CN(Cc1ccc(-n2cccn2)cc1)Cc1ncc[nH]1', 'cytotoxicity at 70.5 h', -9.75),
  ('O=C(NCC1(CO)CC1)c1ccccc1C(F)(F)F', 'cytotoxicity at 70.5 h', -9.3),
  ('O=C1NCCO[C@H]2CN(C(=O)Cc3ccco3)CC[C@@H]12', 'cytotoxicity at 70.5 h', -5.72),
  ('CCOc1ccc2cc(C(=O)NCCNc3ccc(C)nn3)[nH]c2c1', 'cytotoxicity at 70.5 h', -8.09),
  ('c1cn(-c2ccc(CN3CCCC3)cc2)c(-c2cc3n(n2)CCNC3)n1', 'cytotoxicity at 70.5 h', -6.8),
  ('CN(CC(F)(F)F)C(=O)c1ccc(F)c(NS(C)(=O)=O)c1', 'cytotoxicity at 70.5 h', -1.16),
  ('CCN(CC1CCOC1)C(=O)c1cc(OC)c2c(c1)OCCO2 (centres undefined)', 'cytotoxicity at 70.5 h', 0.516);

---

Below, each entry is listed with its recorded cytotoxicity at 70.5 h.
# procedure.text: Human HepG2 cell viability assay in 384 well format
# Assay type: toxicity, cell-based
# Parameters: dose 125 nL, time 70.5 hour; concentration not given beside the values
# condition.notes: HepG2 cells, read-out: Inhibition
measurement.label: cytotoxicity at 70.5 h (%)

INSERT INTO assay_data (compound, measurement_label, unit_abbrev, measured_result) VALUES
  ('CN(C)CCC1CCCCN1Cc1cnc(-c2ccccn2)nc1 (stereo unspecified)', 'cytotoxicity at 70.5 h', '%', -3.63),
  ('CC(C)(C)C(=O)NCC(=O)NC1CC(c2cccc(Cl)c2)C1 (stereo unspecified)', 'cytotoxicity at 70.5 h', '%', -1.37),
  ('c1ccc(Cc2nnc(CN3CCCC(Cn4cncn4)C3)o2)cc1 (stereo unspecified)', 'cytotoxicity at 70.5 h', '%', -13.3),
  ('CN1CCCCCC1C(=O)NCCCn1ncc2ccccc21 (stereo unspecified)', 'cytotoxicity at 70.5 h', '%', -11.3),
  ('Cc1nn(C)c(N(C)C)c1CNCc1ccc(OCC(N)=O)cc1', 'cytotoxicity at 70.5 h', '%', 0.111),
  ('Cn1c(N2CCOCC2)nc2cc(C(=O)N3CC(O)CO3)ccc21 (stereo unspecified)', 'cytotoxicity at 70.5 h', '%', 32.1),
  ('CCOc1ccc(C(=O)N(C)Cc2nccn2CC(F)(F)F)cc1', 'cytotoxicity at 70.5 h', '%', -2.52),
  ('COc1ccc(C(O)CNC(=O)Nc2cc(C)nn2C)cc1 (stereo unspecified)', 'cytotoxicity at 70.5 h', '%', 25.3),
  ('Cc1cnn(CCNC(C)c2nnc(-c3cccc(Cl)c3)o2)c1 (stereo unspecified)', 'cytotoxicity at 70.5 h', '%', -6.22),
  ('CCOc1ccc(CC(=O)N2CCN(c3nccn3C)CC2)cc1', 'cytotoxicity at 70.5 h', '%', -2.2),
  ('CCOC1CCC2(CCN(C(=O)c3c[nH]cn3)CC2)c2ccccc21 (stereo unspecified)', 'cytotoxicity at 70.5 h', '%', -6.3),
  ('CN1CC(=O)N(c2ccccc2)CC12CCN(C(=O)c1cnccn1)C2 (stereo unspecified)', 'cytotoxicity at 70.5 h', '%', 22.8),
  ('CCN1CCCC1CNC(=O)Cc1c(-c2ccc(Cl)cc2)n[nH]c1C (stereo unspecified)', 'cytotoxicity at 70.5 h', '%', 21.2),
  ('c1ccc(COC[C@H]2CC[C@H]3[C@H](CCN3Cc3ccco3)O2)nc1', 'cytotoxicity at 70.5 h', '%', -6.26),
  ('CN(C)CCOCC1CN(C(=O)c2ccsc2)Cc2ccnn2C1 (stereo unspecified)', 'cytotoxicity at 70.5 h', '%', -5.3),
  ('CCN(C)c1ccc(CNC(=O)c2ccc(NC(N)=O)cc2)cc1F', 'cytotoxicity at 70.5 h', '%', -17.6),
  ('O=C(C1CCCN(Cc2ccccc2)C1)N1CCc2sccc2C1 (stereo unspecified)', 'cytotoxicity at 70.5 h', '%', 31),
  ('CCOCC(O)CN1CCN(C(=O)c2cnc3n[nH]c(C)c3c2)CC1 (stereo unspecified)', 'cytotoxicity at 70.5 h', '%', -2.39),
  ('CC(=O)N1CCCN(C(=O)NC(C)Cn2cccn2)CC1 (stereo unspecified)', 'cytotoxicity at 70.5 h', '%', -3.94),
  ('CSCC[C@H](N)C(=O)NCc1cc2n(n1)CCCN(C1CCCCC1)C2', 'cytotoxicity at 70.5 h', '%', -5.05),
  ('N#Cc1ccccc1CN1CCC2(CC1)CC(c1ccccc1)C(=O)N2 (stereo unspecified)', 'cytotoxicity at 70.5 h', '%', 14),
  ('O=C(NCCSc1ccccc1)[C@H]1CNC[C@@H](C(=O)N2CCOCC2)C1', 'cytotoxicity at 70.5 h', '%', -7.93),
  ('O=C(c1ccsc1)N1CCO[C@@H]2CN(Cc3cccs3)C[C@@H]2C1', 'cytotoxicity at 70.5 h', '%', -6.05),
  ('Cc1noc(CN(Cc2ccc3c(c2)OCO3)C2CCCC2)n1', 'cytotoxicity at 70.5 h', '%', -13),
  ('COc1cc(C)c(CNC(C)c2nc(C)cs2)cc1OC (stereo unspecified)', 'cytotoxicity at 70.5 h', '%', -2.23),
  ('CCCNC(=O)CCC(=O)N1CCC(c2n[nH]c(C3CC3)n2)CC1', 'cytotoxicity at 70.5 h', '%', 21.7),
  ('CCOC1CC2(CCN(C(=O)Cc3ccccn3)CC2)C1', 'cytotoxicity at 70.5 h', '%', 18.1),
  ('O=C(C1CCOC1)N1CCN(CCn2cccn2)c2ncccc2C1 (stereo unspecified)', 'cytotoxicity at 70.5 h', '%', -1.8),
  ('CNC(=O)CCNC(=O)c1ccccc1N1CCOCC1', 'cytotoxicity at 70.5 h', '%', -4.86),
  ('CN(C)C(CNC(=O)NCc1cc[nH]n1)c1ccco1 (stereo unspecified)', 'cytotoxicity at 70.5 h', '%', 0.0309),
  ('CCNC(=O)NC(=O)CN1CCC(c2c[nH]c3ccc(OC)cc23)CC1', 'cytotoxicity at 70.5 h', '%', 24.1),
  ('CCOc1ccc(C2CCCN2Cc2nnnn2C2CC2)cc1 (stereo unspecified)', 'cytotoxicity at 70.5 h', '%', 0.0309),
  ('Cc1cccc(-c2ccc(C(=O)N3CCN(C(C)C)CC3)c(=O)[nH]2)c1', 'cytotoxicity at 70.5 h', '%', -2.78),
  ('CCNC(=O)C1CCN(c2cc(-c3ccccc3)nc3ccnn23)C1 (stereo unspecified)', 'cytotoxicity at 70.5 h', '%', -0.497),
  ('CCN1CC2(CCN(CCOc3ccc(F)cc3)CC2)CC1=O', 'cytotoxicity at 70.5 h', '%', 12.8),
  ('CCn1cc(CN2CCN(CC(O)c3ccc(C)cc3C)CC2)cn1 (stereo unspecified)', 'cytotoxicity at 70.5 h', '%', -4.8),
  ('c1cc(-c2c[nH]c([C@@H]3COCCN3C3CCCCC3)n2)ccn1', 'cytotoxicity at 70.5 h', '%', 0.143),
  ('CCN1CCC2(CC1)CC(NC(=O)c1ccnnc1)c1ccccc12 (stereo unspecified)', 'cytotoxicity at 70.5 h', '%', 7.06),
  ('Cn1ncc2c1NC(=O)CC2c1ccc(O)cc1 (stereo unspecified)', 'cytotoxicity at 70.5 h', '%', 7.25),
  ('Cc1ccoc1C(=O)N1CCc2ncnc(-c3cnn(C)c3)c2CC1', 'cytotoxicity at 70.5 h', '%', 24.7),
  ('CC(C)N1CC2(CCC1=O)CCN(C(=O)c1cccc(F)c1F)CC2', 'cytotoxicity at 70.5 h', '%', -5.47),
  ('CC(=O)c1c(C)nn(CC(=O)Nc2ccc(Br)cc2)c1C', 'cytotoxicity at 70.5 h', '%', 4.72),
  ('Cc1cccc2c1N(C)C(=O)C21CC(=O)Nc2c1cnn2C(C)(C)C (stereo unspecified)', 'cytotoxicity at 70.5 h', '%', -18.4),
  ('O=C(NC[C@]12COC[C@H]1CN(Cc1ccncc1)C2)c1ccno1', 'cytotoxicity at 70.5 h', '%', -7.21),
  ('Cc1cc(CN(C)C(=O)c2ccc(Cl)c(N3CCCC3=O)c2)no1', 'cytotoxicity at 70.5 h', '%', 28.1),
  ('Cc1cc(C)cc(CN2CCN(C(=O)CCc3n[nH]c(C)n3)CC2=O)c1', 'cytotoxicity at 70.5 h', '%', 22.5);

Data origin: ChEMBL document CHEMBL3507680
